- System: alpha1 adrenoceptor
- method.notes: Alpha1 adrenoceptor binding affinity (3H-prazosin, rat brain homogenate)
- Design: species or system Wistar rats
- condition.set: radioligand 3H-prazosin 0.25 nM
value.type: Alpha1 affinity (nM)
Numbers only; they are read as nM.

[[record]]
compound = "CC(C(O)c1ccc(O)cc1)N1CCC(Cc2ccccc2)CC1 (stereo not drawn) [erythro (−), Ifenprodil]"
value_type = "Alpha1 affinity"
result = 482


Requested field: Alpha1 affinity. Item: CC(C(O)c1ccc(O)cc1)N1CCC(Cc2ccccc2)CC1 (stereo not drawn) [erythro (+), Ifenprodil]
63

Requested field: Alpha1 affinity. Item: CC(C(O)c1ccc(O)cc1)N1CCC(Cc2ccccc2)CC1 (stereo not drawn) [threo (−), Ifenprodil]
439

Requested field: Alpha1 affinity. Item: CC(C(O)c1ccc(O)cc1)N1CCC(Cc2ccccc2)CC1 (stereo not drawn) [threo (+), Ifenprodil]
2160
